Data provenance is PubChem BioAssay (NCI).

System: COLO 205 colon
Test: NCI tumour cell line growth inhibition, 48 h
Test Readout: TGI

Molecule	Test Readout	Readout Value
O=c1c2c(nc3n1CCS3)[nH]c1cc([N+](=O)[O-])ccc12	TGI	> 100 µM
COc1ccc2c(c1)C(=O)c1c-2n(CCCN(C)C)c(=O)c2ccccc12	TGI	2.62 µM
C=CN(C(=O)N1CCN(c2cc3c(cc2F)c(=O)c(C(=O)O)cn3C2CC2)CC1)c1nc(-c2ccc(OC)cc2)cs1	TGI	6.59 µM
CC(=O)c1nc2ccccc2n1C(C)C(=O)c1ccccc1 (stereo unspecified)	TGI	> 100 µM
C=CCOC(=O)CC[C@H](NC(=O)[C@@H](CCC(F)(F)F)Cc1ccc(O)cc1)C(=O)OCC=C	TGI	40.7 µM
N#CC(c1ccccc1)N(CCCCCCN(C(=O)c1ccccc1)C(C#N)c1ccccc1)C(=O)c1ccccc1 (stereo unspecified)	TGI	39.8 µM
CCC[C@H]1O[C@@H]2CC(=O)O[C@@H]2C2=C1C(=O)C=CC2=O	TGI	9.03 µM
CNC(=O)C(C)NC(=O)C(Cc1ccccc1)NC(=O)c1ccccc1 (stereo unspecified)	TGI	> 100 µM
Fc1ccc(-c2c(-c3ccncc3)nc3n2CCS3)cc1	TGI	> 25 µM
N#C/C(=C\c1ccc(F)cc1)c1nc(-c2cc3ccccc3oc2=O)cs1	TGI	> 100 µM
CCOC(=O)Cc1csc(NC(NC(=O)OCC)(C(=O)OCC)C(F)(F)F)n1 (stereo unspecified)	TGI	> 100 µM
FC1(F)[Se]C2C3CCC(C3)C2C1(F)F (stereo unspecified)	TGI	> 100 µM
C=C(Cl)C(Cl)(CBr)CCC(Br)C(C)(C)Br (stereo unspecified)	TGI	10.8 µM
N#C/C(=C\c1cc(O)cc(O)c1)C(N)=O	TGI	> 100 µM
CCOC(=O)c1nc2cc(C(F)(F)F)ccc2nc1Oc1ccc(C#N)cc1	TGI	> 100 µM
Cc1ccc2c(c1)C(=C(C#N)C#N)CCCS2(=O)=O	TGI	> 100 µM

###

Tested on: UACC-62 melanoma
Experiment: NCI tumour cell line growth inhibition, 48 h
Overview of recorded TGI for various compounds

Compound	TGI
C[C@H]1C[C@@H]2[C@H]([C@@H](O)C[C@@]3(C)[C@H]2CC[C@]3(O)C(=O)CO)[C@@]2(C)C=CC(=O)C=C12	> 100 µM
COc1ccccc1Nc1cc(O)c2c(=O)cc(-c3ccccc3)oc2c1	12.8 µM
CC(=O)Nc1ccc2c3c(cc(O)c2c1)N(C(=O)CCCC(=O)N1CC(CCl)c2c1cc(O)c1cc(NC(C)=O)ccc21)CC3CCl (stereo not given)	0.0173 µM
O=c1ccc2ccc(OP(=O)(O)O)cc2o1	> 100 µM
CC(=O)O[C@@H]1C[C@]2(C(=O)c3ccccc3)C(=O)C(=O)S[C@]12c1ccccc1	> 100 µM

###

Overview of recorded TGI for various compounds
System: SR leukemia
Experiment: NCI tumour cell line growth inhibition, 48 h
Test Readout: TGI (nM)

Compound	Target Or Test System	Endpoint Unit	Value Prefix	Readout Value
COc1ccc2c(c1)Cc1c(NCCN(C)C)ccc(C(=O)NCCCN(C)CCCNC(=O)c3ccc(NCCN(C)C)c4c3Nc3ccc(OC)cc3C4)c1N2	SR leukemia	nM	=	502
Cc1cnc2n1S(=O)(=O)c1cc(C(=O)Nc3cccc4nsnc34)c(Cl)cc1S2	SR leukemia	nM	>	100000
CC(C)C[C@H](NC(=O)CNC(=O)c1cc(Cl)ccc1Cl)B(O)O	SR leukemia	nM	=	385
N#CC12C(=O)NC(=O)C1(C#N)C1C=CC2CC1 (centres undefined)	SR leukemia	nM	>	100000

###

Test system: U251 CNS
Outcome codes: T (active), F (inactive)

Chemical Structure	Group
COc1ccccc1Nc1cc(O)c2c(=O)cc(-c3ccccc3)oc2c1	F
COc1ccc2c(c1)C(=O)c1c-2n(CCCN(C)C)c(=O)c2ccccc12	T
O=c1oc2ccc(I)cc2c(=O)n1-c1ccc(Br)cc1F	F
COc1c/c(=C2\C=c3ccccc3=N2)[nH]/c1=C\c1[nH]c(C)cc1C	T
O=C1NC(=C(Cl)Cl)/C(=N/S(=O)(=O)N2CCCCC2)N1	F

###

Test system: IGROV1 ovarian
Experiment: NCI tumour cell line growth inhibition, 48 h; in the data active = GI50 below about 0.43 µM; inactive = the rest
Outcome codes: active, inactive

Chemical Structure	Target Or Test System	Group
CCOC(=O)c1cc(C(=O)c2ccc(OC)cc2)n2ccc(/C=C/c3cc[n+](CC(=O)c4ccc(OC)cc4)cc3)cc12	IGROV1 ovarian	inactive
CC(C)C[C@H](NC(=O)CNC(=O)c1cc(Cl)ccc1Cl)B(O)O	IGROV1 ovarian	active
NS(=O)(=O)OC[C@H]1C[C@@H](Nc2ccnc3cc(-c4cccc(SC(F)(F)F)c4)nn23)[C@H](O)[C@@H]1O	IGROV1 ovarian	active
CCCCCCCCCCCCCCCC1=NCC[N+]1(CCO)CCO	IGROV1 ovarian	inactive
O=C1Nc2c(ccc(Cl)c2Cl)/C1=C/c1cc(Br)c(O)c(Br)c1	IGROV1 ovarian	inactive
Cc1ccc(O)c(NC(=O)c2cccc(Nc3ccnc(C(F)(F)F)c3)c2)c1	IGROV1 ovarian	inactive

###

Test system: K-562 leukemia
Assay: NCI tumour cell line growth inhibition, 48 h
Where a SMILES comes first, the peptide text is derived from it. The star is where a group is joined. Fmoc = O=C(OCC1c2ccccc2-c2ccccc21)*; OtBu = CC(C)(C)O*

Molecule	Endpoint Unit	Value Prefix	TGI
COC1/C=C(C)/C=C/C(C)/C=C/C(=O)OC(/C(C)=C/C=C(\C)CNC(=O)[C@H](CO)NC=O)C(C)/C=C/C=C/C(OC)CC/C=C(C)/C=C/C1 (stereo not given in full)	µM	=	0.0472
O=C(CSCC(=O)N/N=C/c1ccc2c(c1)OCO2)N/N=C/c1ccc2c(c1)OCO2	µM	>	100
COc1ccc(CNc2cnc3cc(N)ccc3n2)cc1	µM	>	100
COc1cc2c(c(OC)c1OC)-c1ccc(OC)c(=O)cc1C(NC(=O)COc1ccccc1)CC2 (stereo not given)	µM	=	60.8
CC(C)C(NC(=O)OCC1c2ccccc2-c2ccccc21)C(=O)NC(CCC(=O)OC(C)(C)C)C(=O)OC(C)(C)C (stereo not given) (Fmoc-Val-Glu(OtBu)-OtBu; configuration not given here)	µM	>	100
c1ccc2c(CSCc3cccc4ccccc34)cccc2c1	µM	>	100
COc1ccc(C2(Cl)c3ccccc3N(c3ccccc3)c3ccccc32)cc1	µM	=	12
COC(COC(N)=O)C1=C(N2CC2)C(=O)C(C)=C(N2CC2)C1=O (stereo not given)	µM	=	1.76
COc1ccc2c(c1)C(=O)c1c-2n(CCCN(C)C)c(=O)c2ccccc12	µM	=	17.5
Cc1cnc2ccc(C)c([N+](=O)[O-])c2c1NCCCN(C)C	µM	>	100

###

Test system: HOP-62 NSCLC
Assay: NCI tumour cell line growth inhibition, 48 h; in the data active means GI50 below about 0.43 µM; inactive means the rest
Outcome codes: active, inactive

Chemical Structure	Group
C[C@@H](Oc1cc(-n2cnc3ccc(OC4CCN(C)CC4)cc32)sc1C(N)=O)c1ccccc1Cl	active
O=C1Nc2c(ccc(Cl)c2Cl)/C1=C/c1cc(Br)c(O)c(Br)c1	inactive
O=C(CSc1nc2c(n1Nc1ccccc1)-c1ccccc1SC2)Nc1nc(-c2ccc(Cl)cc2)cs1	inactive
Cc1onc(-c2ccccc2)c1C(=O)N/N=C/c1cc(Cl)cc(Cl)c1O	inactive

###

Test system: MOLT-4 leukemia
Test: NCI tumour cell line growth inhibition, 48 h

Compound	TGI
COc1ccccc1Nc1cc(O)c2c(=O)cc(-c3ccccc3)oc2c1	> 100 µM
Cc1c(C)c2ccc(OCC(O)COC(C)C)c(C)c2oc1=O (configuration not stated)	> 10 µM
Cc1cc2c(C(=O)NC[C@H](C)c3ccccc3)c(O)c(O)cc2c(O)c1-c1c(C)cc2c(C(=O)NC[C@H](C)c3ccccc3)c(O)c(O)cc2c1O	7.8 µM
O=C(/C=C\c1ccccc1O)c1ccc(O)cc1O	> 100 µM
CSc1ccc2c(cc1=O)[C@@H](NC(=O)c1cccc([N+](=O)[O-])c1)CCc1cc(O)c(O)c(O)c1-2	53.1 µM
NC1N=C(c2ccc(Cl)cc2)C2=C(N1)c1ccccc1CC2 (configuration not stated)	> 31.4 µM
O=C(Nc1ccc(C(F)(F)F)cc1)NC(F)(F)F	> 100 µM
CN1C(=O)C2(C)SC1(c1ccccc1)C1C(=O)N(c3ccccc3)C(=O)C12 (configuration not stated)	> 100 µM
NCCSSCc1ccccc1CSSCCN	> 100 µM
CC(=O)c1nc2ccccc2n1C(C)C(=O)c1ccccc1 (configuration not stated)	> 100 µM
COc1ccc(C(=O)C#Cc2cn(C3CC(O)C(CO)O3)c(=O)[nH]c2=O)cc1 (configuration not stated)	> 100 µM
O=C(O)CCNCC(=O)O	> 100 µM
N#Cc1ccc(C(O)C(F)(F)c2nc3ccccc3o2)cc1 (configuration not stated)	> 100 µM
CCOC(=O)Cc1csc(NC(NC(=O)OCC)(C(=O)OCC)C(F)(F)F)n1 (configuration not stated)	> 100 µM
COC1/C=C(C)/C=C/C(C)/C=C/C(=O)OC(/C(C)=C/C=C(\C)CNC(=O)[C@H](CO)NC=O)C(C)/C=C/C=C/C(OC)CC/C=C(C)/C=C/C1 (some centres not stated)	> 0.611 µM
CNC(=O)c1c(C)oc2cc(Oc3ncnc4cc(OC)c(OC)cc34)ccc12	> 100 µM
COc1cc2c(c(OC)c1OC)-c1ccc(OC)c(=O)cc1C(NC(=O)COc1ccccc1)CC2 (configuration not stated)	53 µM
O=C(O)CSc1n[nH]c(=O)[nH]c1=O	> 100 µM
CC(=O)OCCn1cnc2c(NCC=C(C)C)ncnc21	> 100 µM
Cc1c2ccccc2c(C2C3C(=O)N(c4ccc(Br)cc4)C(=O)C3ON2C(C(N)=O)c2ccccc2)c2ccccc12 (configuration not stated)	> 100 µM
CCOC(=O)Cc1c(C)c2cc(C(=O)c3ccccc3)c(O)cc2oc1=O	> 100 µM
COc1cccc2c1c1ccc3c(c1n2C)C(=O)C=CC3=O	8.65 µM
NC(=O)C1CCCN1C(=O)C(Cc1cnc[nH]1)NC(=O)C1CCCC1 (configuration not stated)	> 100 µM
CC(C)N(C(=O)C12C3C4C5(C#N)C3C1(C#N)C5C42C#N)C(C)C (configuration not stated)	> 100 µM
CCCCCCCCCCCCCCCC1=NCC[N+]1(CCO)CCO	4.15 µM
COc1cc(C(=O)NC2CCc3cc(OC)c(OC)c(OC)c3-c3ccc(OC)c(=O)cc32)cc(OC)c1OC (configuration not stated)	43.2 µM
C=C[C@@H](C)[C@]1(C(=O)OC)CCCC12OCCO2	> 100 µM
